This collection of values is drawn from paper PMC9482650.

# Target: TJP1_2, Q07157
# Sequence (Q07157 181-274): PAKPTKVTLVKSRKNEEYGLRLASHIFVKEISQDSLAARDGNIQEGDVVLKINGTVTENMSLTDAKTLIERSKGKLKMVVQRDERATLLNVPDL
# Assay Details: holdup assay
# Parameters: key: below the threshold = too weak to quantify, mostly under pKd 3.1 to 4
# Protocol Conditions: plain residues with an end cap or a label only (N-terminal biotin on a linker: ahx)
Endpoint: pKd

# Binder, pKd
measured = [
    ("LSDPSVSTVV [GRIN1, Q05586;Q05586-2]", "below the threshold"),
    ("GYDWGPATDL [TJP3, O95049]", "below the threshold"),
    ("NRKREIFSNF [NHERF2, Q15599]", "below the threshold"),
    ("TVICWPGSLV [LNX2, Q8N448]", "below the threshold"),
]

**Q:** Field request: pKd | item: RRRKRKRTYL [HPV49-L2, P36762]
**A:** 3.49

**Q:** Field request: pKd | item: HNAFLSVTTV [PDZRN4, Q6ZMN7]
**A:** below the threshold
